Taken from PubChem BioAssay AID1159580.

experimental protocol: chemical genetic growth profiling, strain panel (AID 1159580);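 note: tested at 20 µM; growth read once vehicle control cultures reached saturation at 30 °C; 1 = growth at the plate median or of vehicle wells; lower values mean less growth of the strain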
cond: S. cerevisiae deletion strains, growth OD, locus YGL248W, strain PDE1, stronger effect = lower value
In all, about 5,500 compounds went through this assay and about 2,000 (36%) were called active. Inconclusive results (about 18%) are left out. The list shows a part of the results.
Listed next: entries and their corresponding normalized growth.
endpoint: normalized growth

[[record]]
compound = "CC[C@]12CCCN3CCc4c(n(c5ccccc45)[C@](O)(C(=O)OC)C1)[C@@H]32"
endpoint = "normalized growth"
data_value = "0.993 (inactive)"

[[record]]
compound = "CC(=O)C1=C(O)C2C3c4c[nH]c5cccc(c45)CC3C(C)(C)N2C1=O (stereo not given)"
endpoint = "normalized growth"
data_value = "0.997 (inactive)"

[[record]]
compound = "NC(=O)c1cc[n+](CC2=C(C(=O)O)N3C(=O)C(NC(=O)C(c4ccccc4)S(=O)(=O)[O-])C3SC2)cc1 (stereo not given)"
endpoint = "normalized growth"
data_value = "0.976 (inactive)"

[[record]]
compound = "CC1(C)CC2C1CCC1(C)OC1CCC2(C)O (stereo not given)"
endpoint = "normalized growth"
data_value = "1.05 (inactive)"

[[record]]
compound = "Nc1nc2c(c(=O)[nH]1)N(C=O)C(CNc1ccc(C(=O)N[C@@H](CCC(=O)O)C(=O)O)cc1)CN2 (stereo not given in full)"
endpoint = "normalized growth"
data_value = "0.982 (inactive)"

[[record]]
compound = "O=c1cccc2n1C[C@H]1CNCC2C1"
endpoint = "normalized growth"
data_value = "1.03 (inactive)"

[[record]]
compound = "C=CC1=C(C)/C(=C/c2[nH]c(Cc3[nH]c(/C=C4\\NC(=O)C(C)=C4C=C)c(C)c3CCC(=O)O)c(CCC(=O)O)c2C)NC1=O"
endpoint = "normalized growth"
data_value = "1.02 (inactive)"

[[record]]
compound = "CCn1cc(C(=O)O)c(=O)c2ccc(C)nc21"
endpoint = "normalized growth"
data_value = "0.906 (inactive)"

[[record]]
compound = "CC12CCCC(O)(C1)C1CC(C)(C)C1CC2 (stereo not given)"
endpoint = "normalized growth"
data_value = "1.03 (inactive)"

[[record]]
compound = "CC(COc1ccccc1)N(CCCl)Cc1ccccc1 (stereo not given)"
endpoint = "normalized growth"
data_value = "1.01 (inactive)"

[[record]]
compound = "CCCSP(=O)(OCC)SCCC"
endpoint = "normalized growth"
data_value = "1.03 (inactive)"

[[record]]
compound = "CN(Cc1cnc2nc(N)nc(N)c2n1)c1ccc(C(=O)NC(CCC(=O)O)C(=O)O)cc1 (stereo not given)"
endpoint = "normalized growth"
data_value = "0.994 (inactive)"

[[record]]
compound = "CC1CC2C(C(O)CC3(C)C2CCC3(O)C(=O)COC(=O)CCC(=O)O)C2(C)C=CC(=O)C=C12 (stereo not given)"
endpoint = "normalized growth"
data_value = "1.01 (inactive)"

[[record]]
compound = "CCn1cc(C(=O)O)c(=O)c2cnc(N3CCNCC3)nc21"
endpoint = "normalized growth"
data_value = "1 (inactive)"

[[record]]
compound = "O=C(O)c1cc(=O)c2c(OCC(O)COc3cccc4oc(C(=O)O)cc(=O)c34)cccc2o1"
endpoint = "normalized growth"
data_value = "1.01 (inactive)"

[[record]]
compound = "Nc1nc2ncc(CNc3ccc(C(=O)N[C@@H](CCC(=O)O)C(=O)O)cc3)nc2c(=O)[nH]1"
endpoint = "normalized growth"
data_value = "1.01 (inactive)"

[[record]]
compound = "COc1cc2c(cc1O)CC1c3c(cc(O)c(OC)c3-2)CCN1C (stereo not given)"
endpoint = "normalized growth"
data_value = "1.01 (inactive)"

[[record]]
compound = "O=C(O)P(=O)(O)O"
endpoint = "normalized growth"
data_value = "0.94 (inactive)"

[[record]]
compound = "CCOC(=O)c1ccc(N)cc1"
endpoint = "normalized growth"
data_value = "0.997 (inactive)"

[[record]]
compound = "Cc1cccc(CN2CCN(C(c3ccccc3)c3ccc(Cl)cc3)CC2)c1 (stereo not given)"
endpoint = "normalized growth"
data_value = "0.769 (active)"

[[record]]
compound = "C#C[C@]1(O)CCC2C3CCc4cc(O)ccc4C3CC[C@@]21C (stereo not given in full)"
endpoint = "normalized growth"
data_value = "0.952 (inactive)"

[[record]]
compound = "CCOP(=S)(OCC)Oc1ccc2c(C)c(Cl)c(=O)oc2c1"
endpoint = "normalized growth"
data_value = "0.957 (inactive)"

[[record]]
compound = "CCOC(=O)C1=C[C@]2(CC)CCCN3CCc4c(n1c1ccccc41)[C@@H]32"
endpoint = "normalized growth"
data_value = "0.954 (inactive)"

[[record]]
compound = "COc1cc(/C=C/C(=O)O)cc(OC)c1OC"
endpoint = "normalized growth"
data_value = "1.02 (inactive)"

[[record]]
compound = "CC(=O)OCC(=O)[C@@]12OC(C)(C)O[C@@H]1CC1C3C[C@H](F)C4=CC(=O)C=C[C@]4(C)[C@@]3(F)[C@@H](O)C[C@@]12C (stereo not given in full)"
endpoint = "normalized growth"
data_value = "1.01 (inactive)"

[[record]]
compound = "CO[C@@H]1C[C@@H](C[C@H]2CC[C@H](C)[C@H]([C@@H](C)C(=O)O)O2)O[C@]2(O[C@](C)([C@H]3CC[C@@](C)(C4O[C@@H](C5O[C@@](O)(CO)[C@H](C)C[C@@H]5C)C[C@@H]4C)O3)C[C@H]2C)[C@@H]1C (stereo not given in full)"
endpoint = "normalized growth"
data_value = "1.01 (inactive)"

[[record]]
compound = "COc1cc2c3cc1Oc1cc(ccc1O)OC1c4c(cc(OC)c(O)c4Oc4ccc(cc4)CC3N(C)CC2)CCN1C (stereo not given)"
endpoint = "normalized growth"
data_value = "0.999 (inactive)"

[[record]]
compound = "O=C(/C=C/c1ccc(O)c(O)c1)O[C@@H]1C[C@](O)(C(=O)O)C[C@@H](O)[C@H]1O"
endpoint = "normalized growth"
data_value = "1.01 (inactive)"

[[record]]
compound = "COP(=S)(OC)Oc1ccc(SC)c(C)c1"
endpoint = "normalized growth"
data_value = "1.03 (inactive)"

[[record]]
compound = "CCCNC(C)C(=O)Nc1ccccc1C (stereo not given)"
endpoint = "normalized growth"
data_value = "1.02 (inactive)"

[[record]]
compound = "CCn1cc(C(=O)O)c(=O)c2cnc(N3CCCC3)nc21"
endpoint = "normalized growth"
data_value = "1 (inactive)"

[[record]]
compound = "COc1cc(/C=C/C(=O)O)ccc1O"
endpoint = "normalized growth"
data_value = "1.02 (inactive)"

[[record]]
compound = "Nc1nc(N)c2nc(CNc3ccc(C(=O)NC(CCC(=O)O)C(=O)O)cc3)cnc2n1 (stereo not given)"
endpoint = "normalized growth"
data_value = "1 (inactive)"

[[record]]
compound = "CC(=O)Oc1cc(C)c2c(c1C(OC(C)=O)OC(C)=O)Oc1c(c(C)c(OC(C)=O)c3c1C(OC(C)=O)OC3=O)OC2=O (stereo not given)"
endpoint = "normalized growth"
data_value = "0.967 (inactive)"

[[record]]
compound = "COc1ccc(/C=C/C(=O)O)cc1OC"
endpoint = "normalized growth"
data_value = "1.12 [resistant] (active)"

